Biological target: YBX1 (UniProt P67809)
Sequence (P67809 whole entry, looked up): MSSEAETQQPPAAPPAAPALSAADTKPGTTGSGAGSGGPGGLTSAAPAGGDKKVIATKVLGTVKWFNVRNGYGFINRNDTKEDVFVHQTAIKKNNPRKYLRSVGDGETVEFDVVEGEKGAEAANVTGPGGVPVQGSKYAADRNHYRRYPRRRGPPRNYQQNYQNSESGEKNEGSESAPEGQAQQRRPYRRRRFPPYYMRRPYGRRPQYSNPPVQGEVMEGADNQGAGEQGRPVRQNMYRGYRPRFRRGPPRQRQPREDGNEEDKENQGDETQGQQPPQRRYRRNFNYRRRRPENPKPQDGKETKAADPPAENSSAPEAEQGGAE
Assay: log2 fold change, soluble protein after heating vs DMSO (PISA); higher = thermal stabilisation; K562 cells, 10 uM, 30 min; active = over 0.2 and 3.5 SD of the protein, either way, in both replicates (recomputed)
About 7,900 targets were measured; listed, in parts, are those with a hit and a random draw of the rest. About 0.6% of all pairs of compound and target were hits.
Would you mind labelling by log2 fold change? At or over 0.04 is rule met, under is rule not met.

>  <MOLECULE>
C[C@@H](N)c1ccc(C(=O)Nc2ccnc3[nH]ccc23)cc1

>  <SYSTEM NAME>
YBX1 (UniProt P67809)

>  <CLASS LABEL>
rule met

$$$$
>  <MOLECULE>
Cn1cc(-c2ccc3c(c2)CCN3C(=O)Cc2cccc(C(F)(F)F)c2)c2c(N)ncnc21

>  <SYSTEM NAME>
YBX1 (UniProt P67809)

>  <CLASS LABEL>
rule not met

$$$$
>  <MOLECULE>
Cc1ncc(-c2ccnc(Nc3ccc(S(C)(=O)=O)cc3)n2)n1C(C)C

>  <SYSTEM NAME>
YBX1 (UniProt P67809)

>  <CLASS LABEL>
rule not met

$$$$
>  <MOLECULE>
CNc1nc(-c2ccc3c(N)n[nH]c3c2)cc(N2C[C@@H](C(=O)NC3CCCCC3)CC[C@H]2C)n1

>  <SYSTEM NAME>
YBX1 (UniProt P67809)

>  <CLASS LABEL>
rule met

$$$$
>  <MOLECULE>
Cc1nc(Nc2n[nH]c3c2CN(C(=O)N[C@H](CN(C)C)c2ccccc2)C3(C)C)c2sccc2n1

>  <SYSTEM NAME>
YBX1 (UniProt P67809)

>  <CLASS LABEL>
rule met

$$$$
>  <MOLECULE>
CCN(CC)Cc1ccc2cc(COC(=O)Nc3ccc(C(=O)NO)cc3)ccc2c1 [givinostat]

>  <SYSTEM NAME>
YBX1 (UniProt P67809)

>  <CLASS LABEL>
rule not met

$$$$
>  <MOLECULE>
O=C1NC(=NCc2cccs2)S/C1=C\c1ccc2ncccc2c1

>  <SYSTEM NAME>
YBX1 (UniProt P67809)

>  <CLASS LABEL>
rule not met

$$$$
>  <MOLECULE>
CNC(=O)c1ccccc1Nc1nc(Nc2ccc(N3CCOCC3)cc2OC)ncc1Cl

>  <SYSTEM NAME>
YBX1 (UniProt P67809)

>  <CLASS LABEL>
rule not met

$$$$
>  <MOLECULE>
CC(=O)c1cnc2ccc(-c3cc(Cl)c(O)c(Cl)c3)nc2c1N[C@H]1CC[C@H](CN(C)C)CC1

>  <SYSTEM NAME>
YBX1 (UniProt P67809)

>  <CLASS LABEL>
rule met

$$$$
